Below are pIC50 measurements against Peptidyl-prolyl cis-trans isomerase A (Homo sapiens) drawn from the literature.
pIC50: −log10 of the molar value.

Q: Return reported pIC50; argument: "CC(C)[C@@H]1NC(=O)/C=C\c2cc3cc(ccc3cn2)[C@@H](C)NC(=O)[C@@H]2CCCN(N2)C(=O)[C@H](C)NC1=O"
Result: 5.00 to 6.00

Q: Return reported pIC50; argument: "CC(C)[C@H]1C(=O)N[C@@H](C)C(=O)N2CCC[C@H](N2)C(=O)O[C@H](C)c2ccc3cnc(cc3c2)/C=C/C(C)(C)C(=O)N1C"
Result: > 7.00

Q: Return reported pIC50; argument: "COC[C@@]1(C)/C=C/c2ccc3ccc(nc3c2)[C@@H](C)NC(=O)[C@@H]2CCCN(N2)C(=O)[C@H](C)NC(=O)[C@H](C(C)C)OC1=O"
Result: > 7.00

Q: Return reported pIC50; argument: "C/C=C/C[C@@H](C)[C@@H](O)[C@H]1C(=O)N[C@@H](CC)C(=O)N(C)CC(=O)N(C)[C@@H](CC(C)C)C(=O)N[C@@H](C(C)C)C(=O)N(C)CC(=O)N[C@@H](C)C(=O)N[C@H](C)C(=O)N(C)[C@@H](CC(C)C)C(=O)N(C)[C@@H](CC(C)C)C(=O)N(C)[C@@H](C(C)C)C(=O)N1C"
Result: > 5.70

Q: Return reported pIC50; argument: "C/C=C/C[C@@H](C)[C@@H](O)[C@H]1C(=O)N[C@@H](CC)C(=O)N(C)CC(=O)N(C)[C@H](C(C)C)C(=O)N[C@@H](C(C)C)C(=O)N(C)[C@@H](CC(C)C)C(=O)N[C@@H](C)C(=O)N[C@H](C)C(=O)N(C)[C@@H](CC(C)C)C(=O)N(C)[C@@H](CC(C)C)C(=O)N(C)[C@@H](C(C)C)C(=O)N1C"
Result: > 5.70

Q: Return reported pIC50; argument: "COC[C@@]1(C)/C=C/c2ccc3ccc(nc3c2)[C@@H](C)N(C)C(=O)[C@@H]2CCCN(N2)C(=O)[C@H](C)NC(=O)[C@H](C(C)C)OC1=O"
Result: > 7.00

Q: Return reported pIC50; argument: "CC(C)[C@@H]1OC(=O)C(C)(C)/C=C/c2ccc3ccc(nc3c2)[C@@H](C)OC(=O)[C@@H]2CCCN(N2)C(=O)[C@H](C)NC1=O"
Result: > 7.00

Q: Return reported pIC50; argument: "C/C=C/C[C@@H](C)[C@@H](O)[C@H]1C(=O)N[C@@H](CC)C(=O)N(C)CC(=O)N(C)[C@@H]([C@@H](C)CC)C(=O)N[C@@H](C(C)C)C(=O)N(C)[C@@H](CC(C)C)C(=O)N[C@@H](C)C(=O)N[C@H](C)C(=O)N(C)[C@@H](CC(C)C)C(=O)N(C)[C@@H](CC(C)C)C(=O)N(C)[C@@H](C(C)C)C(=O)N1C"
Result: > 5.70

Q: Return reported pIC50; argument: "C/C=C/C[C@@H](C)[C@@H](O)[C@H]1C(=O)N[C@@H](CC)C(=O)N(C)CC(=O)N(C)[C@@H](CC(C)C)C(=O)N[C@@H](C(C)C)C(=O)N(C)[C@@H](CC(C)C)C(=O)N[C@@H](CC)C(=O)N[C@H](C)C(=O)N(C)[C@@H](CC(C)C)C(=O)N(C)[C@@H](CC(C)C)C(=O)N(C)[C@@H](C(C)C)C(=O)N1C"
Result: > 5.70

Q: Return reported pIC50; argument: "C/C=C/C[C@@H](C)[C@@H](O)[C@H]1C(=O)N[C@@H](CC)C(=O)N(C)CC(=O)N(C)[C@@H](CC(C)C)C(=O)N[C@@H](C(C)C)C(=O)N(C)[C@@H](CC(C)C)C(=O)N[C@@H](CC(C)C)C(=O)N[C@H](C)C(=O)N(C)[C@@H](CC(C)C)C(=O)N(C)[C@@H](CC(C)C)C(=O)N(C)[C@@H](C(C)C)C(=O)N1C"
Result: > 5.70

Q: Return reported pIC50; argument: "C/C=C/C[C@@H](C)[C@@H](O)[C@H]1C(=O)N[C@@H](CC)C(=O)N(C)CC(=O)N(C)[C@@H](CCCC)C(=O)N[C@@H](C(C)C)C(=O)N(C)[C@@H](CC(C)C)C(=O)N[C@@H](C)C(=O)N[C@H](C)C(=O)N(C)[C@@H](CC(C)C)C(=O)N(C)[C@@H](CC(C)C)C(=O)N(C)[C@@H](C(C)C)C(=O)N1C"
Result: > 5.70

Q: Return reported pIC50; argument: CC(C)[C@@H]1OC(=O)C2(/C=C/c3ccc4ccc(nc4c3)[C@@H](C)NC(=O)[C@@H]3CCCN(N3)C(=O)[C@H](C)NC1=O)CN(C(=O)OC(C)(C)C)CCO2 (single isomer, unassigned)
Result: > 7.00
